Target: MMP-9 (Homo sapiens, UniProt P14780)
Construct: made in house; host or cells: MMP-9-transfected HT1080 cells (spent media)
Sequence (P14780 107-707 limits assumed): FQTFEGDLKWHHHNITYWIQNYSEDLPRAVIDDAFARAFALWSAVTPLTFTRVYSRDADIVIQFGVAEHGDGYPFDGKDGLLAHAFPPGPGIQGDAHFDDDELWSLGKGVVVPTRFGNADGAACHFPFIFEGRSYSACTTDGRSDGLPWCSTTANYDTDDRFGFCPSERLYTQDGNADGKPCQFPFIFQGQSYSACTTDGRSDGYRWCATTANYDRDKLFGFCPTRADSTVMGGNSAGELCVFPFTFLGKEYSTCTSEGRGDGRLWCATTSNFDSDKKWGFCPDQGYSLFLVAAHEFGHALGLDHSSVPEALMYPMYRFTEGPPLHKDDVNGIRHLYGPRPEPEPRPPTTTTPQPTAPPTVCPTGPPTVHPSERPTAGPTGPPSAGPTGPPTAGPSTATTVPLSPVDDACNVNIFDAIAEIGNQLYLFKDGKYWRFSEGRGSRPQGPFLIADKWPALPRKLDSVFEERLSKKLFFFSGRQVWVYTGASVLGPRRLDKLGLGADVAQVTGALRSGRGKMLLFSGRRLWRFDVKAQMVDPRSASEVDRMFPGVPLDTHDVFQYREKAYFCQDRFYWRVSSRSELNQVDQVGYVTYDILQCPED
Test: MMP-9 inhibition (in vitro Ki)
Format: biochemical
Conditions: Table 8; read-out: MMP-9 Ki
Structures can show the parent of a compound that is named as a salt.
MEASUREMENT_TYPE: pKi
Please express pKi as -log10 of the molar concentration.

Case O=C(NO)C1(S(=O)(=O)N2CCC(c3cnc(OCCC4CC4)cn3)CC2)CCOCC1 [Example A67] , MMP-9 (Homo sapiens, UniProt P14780), pKi recorded as 10.15

Case O=C(NO)C1(S(=O)(=O)N2CCC(CCCCCOCCC(F)(F)F)CC2)CCOCC1 [Example A37] , MMP-9 (Homo sapiens, UniProt P14780), pKi recorded as 9.52

Case CC(C)CCCCCOC1CCN(S(=O)(=O)C2(C(=O)NO)CCOCC2)CC1 [Example A36F] , MMP-9 (Homo sapiens, UniProt P14780), pKi recorded as 8.65

Case CCCCCCOC1CCN(S(=O)(=O)C2(C(=O)NO)CCOCC2)CC1 [Example A36] , MMP-9 (Homo sapiens, UniProt P14780), pKi recorded as 9.02

Case COCCC(C(=O)NO)S(=O)(=O)N1CCC(c2ccc(CCC(F)(F)C(F)(F)F)cc2)CC1 (centres unmarked) [Example A66] , MMP-9 (Homo sapiens, UniProt P14780), pKi recorded as 8.94

Case CCC(CC)(C(=O)NO)S(=O)(=O)N1CCC(c2ccc(CCC(F)(F)C(F)(F)F)cn2)CC1 [Example A60, Hydrochloride] , MMP-9 (Homo sapiens, UniProt P14780), pKi recorded as 9.20

Case CCCCCCOCC1CCN(S(=O)(=O)C2(C(=O)NO)CCOCC2)CC1 [Example A41] , MMP-9 (Homo sapiens, UniProt P14780), pKi recorded as 8.75

Case O=C(NO)C1(S(=O)(=O)N2CCC(COCCCC(F)(F)F)CC2)CCOCC1 [Example A42] , MMP-9 (Homo sapiens, UniProt P14780), pKi recorded as 7.54

Case O=C(NO)C1(S(=O)(=O)N2CCC(CCCCC(F)(F)C(F)(F)F)CC2)CCOCC1 [Example A53] , MMP-9 (Homo sapiens, UniProt P14780), pKi recorded as 8.61

Case CC(C)CCCOC1CCN(S(=O)(=O)C2(C(=O)NO)CCOCC2)CC1 [Example A36D] , MMP-9 (Homo sapiens, UniProt P14780), pKi recorded as 7.41

Case O=C(NO)C1(S(=O)(=O)N2CCC(OCCCCCCC(F)(F)F)CC2)CCOCC1 [Example A48] , MMP-9 (Homo sapiens, UniProt P14780), pKi recorded as 8.08

Case O=C(NO)C1(S(=O)(=O)N2CCC(OCCCc3ccccc3)CC2)CCOCC1 [Example A36G] , MMP-9 (Homo sapiens, UniProt P14780), pKi recorded as 7.79

Case CC(F)(F)CCc1ccc(C2CCN(S(=O)(=O)C3(C(=O)NO)CCOCC3)CC2)nc1 [Example A63, Hydrochloride] , MMP-9 (Homo sapiens, UniProt P14780), pKi recorded as 9.66

Case O=C(NO)C1(S(=O)(=O)N2CCC(c3ccc(OCC(F)(F)C(F)F)cn3)CC2)CCOCC1 [Example A59, Hydrochloride] , MMP-9 (Homo sapiens, UniProt P14780), pKi recorded as 8.81

Case CCCCOCCOC1CCN(S(=O)(=O)C2(C(=O)NO)CCOCC2)CC1 [Example A36H] , MMP-9 (Homo sapiens, UniProt P14780), pKi recorded as 7.34

Case O=C(NO)C1(S(=O)(=O)N2CCC(CCCCCOCC(F)(F)F)CC2)CCOCC1 [Example A35] , MMP-9 (Homo sapiens, UniProt P14780), pKi recorded as 8.57

Case CCCOCCCCC1CCN(S(=O)(=O)C2(C(=O)NO)CCOCC2)CC1 [Example A39] , MMP-9 (Homo sapiens, UniProt P14780), pKi recorded as 8.00
